- Tested on: Escherichia coli
- ASSAY_NOTES: Antimicrobial activity against Escherichia coli M073 mutant with AG100 lon2::IS186 acrR::IS5 genotype
- Assay type: functional
OBSERVED_PROPERTY: MIC (µg/mL)

1. CCn1cc(C(=O)O)c(=O)c2ccc(C)nc21 [NALIDIXIC ACID]: 8
2. CC1(C)S[C@@H]2[C@H](NC(=O)[C@H](N)c3ccccc3)C(=O)N2[C@H]1C(=O)O [AMPICILLIN]: 6
3. CCn1cc(C(=O)O)c(=O)c2cc(F)c(N3CCNCC3)cc21 [NORFLOXACIN]: 0.19

====

- System: Escherichia coli
- ASSAY_NOTES: Antimicrobial activity against Escherichia coli AG112 mutant with marR genotype after 125 generations in absence of tetracycline
- Format: functional
Entries and their measured MIC follow.
OBSERVED_PROPERTY: MIC (µg/mL)

1. CN(C)[C@@H]1C(O)=C(C(N)=O)C(=O)[C@@]2(O)C(O)=C3C(=O)c4c(O)cccc4[C@@](C)(O)[C@H]3C[C@@H]12: 24
2. CC1(C)S[C@@H]2[C@H](NC(=O)[C@H](N)c3ccccc3)C(=O)N2[C@H]1C(=O)O: 12
3. O=C(N[C@H](CO)[C@H](O)c1ccc([N+](=O)[O-])cc1)C(Cl)Cl: 24
4. CCn1cc(C(=O)O)c(=O)c2ccc(C)nc21: 24
5. CCn1cc(C(=O)O)c(=O)c2cc(F)c(N3CCNCC3)cc21: 0.75

====

- System: Escherichia coli
- ASSAY_NOTES: Antimicrobial activity against Escherichia coli M073 mutant with AG100 lon2::IS186 acrR::IS5 genotype
- Type: functional
OBSERVED_PROPERTY: MIC (µg/mL)

1. O=C(N[C@H](CO)[C@H](O)c1ccc([N+](=O)[O-])cc1)C(Cl)Cl: 32
2. CO[C@H]1/C=C/O[C@@]2(C)Oc3c(C)c(O)c4c(O)c(c(/C=N/N5CCN(C)CC5)c(O)c4c3C2=O)NC(=O)/C(C)=C\C=C\[C@H](C)[C@H](O)[C@@H](C)[C@@H](O)[C@@H](C)[C@H](OC(C)=O)[C@@H]1C: 24
3. CN(C)[C@@H]1C(O)=C(C(N)=O)C(=O)[C@@]2(O)C(O)=C3C(=O)c4c(O)cccc4[C@@](C)(O)[C@H]3C[C@@H]12: 12

====

- System: Escherichia coli
- ASSAY_NOTES: Antimicrobial activity against Escherichia coli AG112 mutant with AG100 marR genotype
- Format: functional
Labelling: MIC reported below 8 µg/mL becomes t; at or above becomes f.

1) CCn1cc(C(=O)O)c(=O)c2ccc(C)nc21: f
2) CC1(C)S[C@@H]2[C@H](NC(=O)[C@H](N)c3ccccc3)C(=O)N2[C@H]1C(=O)O: t
3) CCn1cc(C(=O)O)c(=O)c2cc(F)c(N3CCNCC3)cc21: t
4) O=C(N[C@H](CO)[C@H](O)c1ccc([N+](=O)[O-])cc1)C(Cl)Cl: f
